- PROTOCOL_NOTES: Firocoxib pharmacokinetics in sows following IM administration (Example 2)
- Type: in vivo, swine
- TEST_SETTINGS: female, Yorkshire×Landrace, pig, plasma; sows, 1.0 mg/kg IM, mean
READOUT_KIND: MRT inf

// CC1(C)OC(=O)C(OCC2CC2)=C1c1ccc(S(C)(=O)=O)cc1 : MRT inf value = 34.8 h

----------
- PROTOCOL_NOTES: in vivo
- Design: species or system swine
- TEST_SETTINGS: both sexes, pig, im, 1.5 mg/kg
READOUT_KIND: AUC(0-inf) (ng·h/mL)
Express your answer in ng·h/mL, writing the number without its unit.

// CC1(C)OC(=O)C(OCC2CC2)=C1c1ccc(S(C)(=O)=O)cc1 : AUC(0-inf) value = 4620

Where do the numbers come from? From patent US10434083B2.
